Here's a batch of compounds along with measured pKi for Sodium-dependent serotonin transporter (Homo sapiens, UniProt P31645).
Interpret pKi as the negative base-10 log of the concentration measured in mol/L.

{"Compound": "COc1ccc(C2=NN(CCCCCNCC[C@H](Oc3ccc(C(F)(F)F)cc3)c3ccccc3)C(=O)C3CC=CCC23)cc1OC (stereo partly drawn)", "Assay target": "Sodium-dependent serotonin transporter (Homo sapiens, UniProt P31645)", "pKi": 6.52}

compound COc1ccc(C2=NN(CCCCCNCC[C@@H](Oc3ccc(C(F)(F)F)cc3)c3ccccc3)C(=O)C3CC=CCC23)cc1OC (stereo partly drawn) , pKi observed: 7.19
